molecular target: Protein kinase C gamma type (Homo sapiens, UniProt P05129); assay: Inhibition of Protein kinase C gamma
measuredQuantity: IC50

structureSmiles: CCCCc1c(-c2ccc(O)cc2)[nH]c2nccnc12
val: > 100 µM

* * *

target: Serine/threonine-protein kinase D1 (Homo sapiens, UniProt Q15139); assay: Inhibition of Protein kinase C mu
Sequence (Q15139 whole entry): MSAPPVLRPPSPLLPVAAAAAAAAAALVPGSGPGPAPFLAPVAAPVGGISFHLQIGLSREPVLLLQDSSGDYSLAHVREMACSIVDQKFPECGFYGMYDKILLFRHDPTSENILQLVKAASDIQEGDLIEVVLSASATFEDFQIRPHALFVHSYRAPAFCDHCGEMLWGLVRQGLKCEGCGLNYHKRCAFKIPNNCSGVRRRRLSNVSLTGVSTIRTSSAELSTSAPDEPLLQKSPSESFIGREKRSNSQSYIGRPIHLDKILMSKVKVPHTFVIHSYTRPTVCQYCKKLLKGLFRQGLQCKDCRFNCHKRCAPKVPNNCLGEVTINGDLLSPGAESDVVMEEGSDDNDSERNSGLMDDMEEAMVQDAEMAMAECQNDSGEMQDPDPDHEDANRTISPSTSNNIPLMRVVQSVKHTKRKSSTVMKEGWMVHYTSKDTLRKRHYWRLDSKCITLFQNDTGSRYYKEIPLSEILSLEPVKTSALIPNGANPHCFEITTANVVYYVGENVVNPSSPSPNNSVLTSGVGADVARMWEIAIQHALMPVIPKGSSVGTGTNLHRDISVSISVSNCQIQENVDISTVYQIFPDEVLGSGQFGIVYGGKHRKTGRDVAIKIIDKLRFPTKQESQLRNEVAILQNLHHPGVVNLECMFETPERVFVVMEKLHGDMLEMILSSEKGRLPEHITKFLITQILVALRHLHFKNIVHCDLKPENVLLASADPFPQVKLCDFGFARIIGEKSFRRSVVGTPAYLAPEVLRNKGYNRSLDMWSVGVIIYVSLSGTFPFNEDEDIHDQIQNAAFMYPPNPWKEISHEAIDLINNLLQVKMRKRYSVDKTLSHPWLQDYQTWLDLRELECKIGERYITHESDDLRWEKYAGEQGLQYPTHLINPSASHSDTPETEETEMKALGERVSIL
pIC50: −log10 of the molar value.

compound: CCCCc1c(-c2ccc(O)cc2)[nH]c2nccnc12 [ALOISINE A]
targetEntity: Serine/threonine-protein kinase D1 (Homo sapiens, UniProt Q15139)
pIC50: < 4.00

* * *

Target: Protein kinase C zeta type (Homo sapiens, UniProt Q05513)
Sequence (Q05513 whole entry): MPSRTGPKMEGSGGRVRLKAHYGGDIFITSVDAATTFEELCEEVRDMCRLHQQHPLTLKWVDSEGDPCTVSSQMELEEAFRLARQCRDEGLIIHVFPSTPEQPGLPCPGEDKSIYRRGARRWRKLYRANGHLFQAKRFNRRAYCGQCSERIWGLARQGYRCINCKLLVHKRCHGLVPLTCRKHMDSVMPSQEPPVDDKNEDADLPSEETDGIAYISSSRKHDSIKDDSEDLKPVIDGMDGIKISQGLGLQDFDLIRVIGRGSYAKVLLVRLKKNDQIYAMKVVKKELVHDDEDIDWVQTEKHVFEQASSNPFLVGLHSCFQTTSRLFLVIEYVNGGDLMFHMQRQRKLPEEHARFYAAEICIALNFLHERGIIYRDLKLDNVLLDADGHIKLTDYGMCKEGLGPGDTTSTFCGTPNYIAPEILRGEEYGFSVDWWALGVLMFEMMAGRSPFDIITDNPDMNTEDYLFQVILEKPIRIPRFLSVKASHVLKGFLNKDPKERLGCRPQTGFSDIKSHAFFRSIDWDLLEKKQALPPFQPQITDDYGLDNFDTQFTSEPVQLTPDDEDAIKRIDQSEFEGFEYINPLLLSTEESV
measuredQuantity: IC50

compound: CCCCc1c(-c2ccc(O)cc2)[nH]c2nccnc12 [ALOISINE A]
targetEntity: Protein kinase C zeta type (Homo sapiens, UniProt Q05513)
val: > 100 µM

* * *

molecular target: Cyclin-dependent kinase 2/cyclin A (Homo sapiens); assay: Inhibition of Cyclin-dependent kinase 2-cyclin A

structureSmiles: CCCCc1c(-c2ccc(O)cc2)[nH]c2nccnc12
targetEntity: Cyclin-dependent kinase 2/cyclin A (Homo sapiens)
IC50: 120 nM

* * *

molecular target: CDK1/cyclin B (Marthasterias glacialis)
// map IC50 to label using bin 0 (below 2 µM), bin 1 (2 µM to below 10 µM), bin 2 (10 µM or more)

structureSmiles: COc1cccc(-c2cc3[nH]ccnc-3n2)c1
classification: bin 2
//
structureSmiles: CCCc1c(-c2ccc(OC)cc2)[nH]c2nccnc12
classification: bin 0
//
structureSmiles: Cc1c(-c2ccc(OS(=O)(=O)N(C)C)cc2)[nH]c2nccnc12
classification: bin 0
//
structureSmiles: CC(C)c1c(-c2ccc(Cl)cc2)[nH]c2nccnc12
classification: bin 0
//
structureSmiles: Oc1ccccc1-c1cc2[nH]ccnc-2n1
classification: bin 1
//
structureSmiles: c1coc(-c2cc3[nH]ccnc-3n2)c1
classification: bin 2
//
structureSmiles: COc1cc(-c2cc3[nH]ccnc-3n2)cc(OC)c1OC
classification: bin 2
//
structureSmiles: CN(C)c1ccc(-c2cc3[nH]ccnc-3n2)cc1
classification: bin 2
//
structureSmiles: N#Cc1ccc(-c2cc3[nH]ccnc-3n2)cc1
classification: bin 1
//
structureSmiles: Clc1ccc(-c2cc3[nH]ccnc-3n2)cc1
classification: bin 0
//
structureSmiles: COc1ccc(-c2[nH]c3nccnc3c2C)cc1
classification: bin 0
//
structureSmiles: C=CCc1c(-c2ccc(OC)cc2)[nH]c2nccnc12
classification: bin 0
//
structureSmiles: COc1ccc(-c2[nH]c3nccnc3c2CC2CCCCC2)cc1
classification: bin 1
//
structureSmiles: COc1ccc(-c2[nH]c3nccnc3c2CC2CC2)cc1
classification: bin 0
//
structureSmiles: CCCc1c(-c2ccc(O)cc2)[nH]c2nccnc12
classification: bin 2
//
structureSmiles: Oc1ccc(-c2[nH]c3nccnc3c2CC2CC2)cc1
classification: bin 2
//
structureSmiles: CCCCCCCc1c(-c2ccc(OC)cc2)[nH]c2nccnc12
classification: bin 1
//
structureSmiles: c1ccc(-c2cc3[nH]c4ccccc4nc-3n2)cc1
classification: bin 2
//
structureSmiles: c1ccc2c(-c3cc4[nH]ccnc-4n3)cccc2c1
classification: bin 2
//
structureSmiles: CCCCc1c(-c2ccc(Cl)cc2)[nH]c2nccnc12
classification: bin 0
//
structureSmiles: Cc1ccc(-c2cc3[nH]ccnc-3n2)cc1
classification: bin 1
//
structureSmiles: Clc1ccc(C2(c3cc4[nH]ccnc-4n3)CC2)cc1
classification: bin 2
//
structureSmiles: Fc1ccc(-c2cc3[nH]ccnc-3n2)cc1
classification: bin 1

* * *

assay: Inhibition of cGMP-dependent protein kinase

structureSmiles: CCCCc1c(-c2ccc(O)cc2)[nH]c2nccnc12
IC50 (µM): 100

* * *

molecular target: Protein kinase C alpha type (Homo sapiens, UniProt P17252)

compound: CCCCc1c(-c2ccc(O)cc2)[nH]c2nccnc12 [ALOISINE A]
IC50: > 100 µM

* * *

target: Casein kinase II (Homo sapiens, UniProt P19784+P67870+P68400); test: Inhibition of Casein kinase II
Sequence (P67870 whole entry): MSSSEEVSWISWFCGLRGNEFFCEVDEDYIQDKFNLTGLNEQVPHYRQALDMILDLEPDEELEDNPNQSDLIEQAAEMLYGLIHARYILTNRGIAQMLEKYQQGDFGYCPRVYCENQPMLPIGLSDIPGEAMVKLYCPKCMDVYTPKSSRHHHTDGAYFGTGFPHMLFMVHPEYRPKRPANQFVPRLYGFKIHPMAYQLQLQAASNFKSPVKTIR
Sequence (P68400 whole entry): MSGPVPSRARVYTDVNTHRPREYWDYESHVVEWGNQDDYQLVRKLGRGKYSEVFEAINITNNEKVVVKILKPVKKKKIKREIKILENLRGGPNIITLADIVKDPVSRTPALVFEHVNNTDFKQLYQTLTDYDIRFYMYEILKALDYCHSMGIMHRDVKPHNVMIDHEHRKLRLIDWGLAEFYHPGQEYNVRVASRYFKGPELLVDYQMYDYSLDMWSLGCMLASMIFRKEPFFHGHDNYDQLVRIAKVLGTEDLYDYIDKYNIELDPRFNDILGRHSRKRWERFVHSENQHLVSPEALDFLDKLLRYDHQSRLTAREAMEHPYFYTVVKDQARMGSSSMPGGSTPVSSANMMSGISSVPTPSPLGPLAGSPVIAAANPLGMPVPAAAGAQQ
Sequence (P19784 whole entry): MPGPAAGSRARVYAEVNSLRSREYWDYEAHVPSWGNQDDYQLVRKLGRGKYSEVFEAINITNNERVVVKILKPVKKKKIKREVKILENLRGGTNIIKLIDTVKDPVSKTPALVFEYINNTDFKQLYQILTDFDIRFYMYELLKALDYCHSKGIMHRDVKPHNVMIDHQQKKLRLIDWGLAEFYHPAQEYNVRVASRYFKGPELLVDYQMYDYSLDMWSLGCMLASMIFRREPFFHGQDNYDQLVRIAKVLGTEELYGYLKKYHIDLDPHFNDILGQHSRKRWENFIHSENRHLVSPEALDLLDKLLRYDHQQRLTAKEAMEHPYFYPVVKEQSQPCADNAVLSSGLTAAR

compound: CCCCc1c(-c2ccc(O)cc2)[nH]c2nccnc12 [ALOISINE A]
targetEntity: Casein kinase II (Homo sapiens, UniProt P19784+P67870+P68400)
IC50: > 100 µM

* * *

Reported IC50, CDK1/cyclin B (Marthasterias glacialis).

structureSmiles: c1c[nH]c2cc(-c3ccc(C4OCCO4)cc3)nc-2n1
targetEntity: CDK1/cyclin B (Marthasterias glacialis)
IC50: 8 µM

structureSmiles: Oc1cccc(-c2cc3[nH]ccnc-3n2)c1
targetEntity: CDK1/cyclin B (Marthasterias glacialis)
IC50: 2.5 µM

structureSmiles: c1ccc(-c2cc3[nH]ccnc-3n2)cc1
targetEntity: CDK1/cyclin B (Marthasterias glacialis)
IC50: 5 µM

* * *

Sequence of the target: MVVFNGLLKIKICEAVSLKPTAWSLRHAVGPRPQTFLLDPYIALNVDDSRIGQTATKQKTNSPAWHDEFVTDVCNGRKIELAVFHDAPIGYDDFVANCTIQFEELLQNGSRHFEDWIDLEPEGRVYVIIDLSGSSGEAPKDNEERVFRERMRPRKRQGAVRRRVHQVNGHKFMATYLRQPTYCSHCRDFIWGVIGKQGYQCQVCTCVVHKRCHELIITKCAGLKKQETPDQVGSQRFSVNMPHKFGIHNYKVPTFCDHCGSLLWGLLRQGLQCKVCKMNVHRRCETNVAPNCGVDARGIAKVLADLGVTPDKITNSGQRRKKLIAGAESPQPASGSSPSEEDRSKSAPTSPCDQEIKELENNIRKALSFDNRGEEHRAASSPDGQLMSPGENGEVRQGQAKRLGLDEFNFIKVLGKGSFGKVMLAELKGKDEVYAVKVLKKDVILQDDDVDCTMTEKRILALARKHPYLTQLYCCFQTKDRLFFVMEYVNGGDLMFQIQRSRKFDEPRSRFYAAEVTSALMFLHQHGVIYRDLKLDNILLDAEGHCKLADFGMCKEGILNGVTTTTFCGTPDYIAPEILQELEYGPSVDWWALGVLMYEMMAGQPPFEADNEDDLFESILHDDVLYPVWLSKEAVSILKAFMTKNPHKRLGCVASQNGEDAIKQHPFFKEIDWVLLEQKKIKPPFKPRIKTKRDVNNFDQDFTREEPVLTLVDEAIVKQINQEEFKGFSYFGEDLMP

structureSmiles: CCCCc1c(-c2ccc(O)cc2)[nH]c2nccnc12
IC50: > 100 µM

* * *

Catalogue of log10 IC50 readings, one per entry.
target: Glycogen synthase kinase-3 beta (Homo sapiens); assay: Inhibition of glycogen synthase kinase-3 beta, purified from porcine brain or expressed in and purified from insect Sf9 cells
Sequence (P49841 whole entry): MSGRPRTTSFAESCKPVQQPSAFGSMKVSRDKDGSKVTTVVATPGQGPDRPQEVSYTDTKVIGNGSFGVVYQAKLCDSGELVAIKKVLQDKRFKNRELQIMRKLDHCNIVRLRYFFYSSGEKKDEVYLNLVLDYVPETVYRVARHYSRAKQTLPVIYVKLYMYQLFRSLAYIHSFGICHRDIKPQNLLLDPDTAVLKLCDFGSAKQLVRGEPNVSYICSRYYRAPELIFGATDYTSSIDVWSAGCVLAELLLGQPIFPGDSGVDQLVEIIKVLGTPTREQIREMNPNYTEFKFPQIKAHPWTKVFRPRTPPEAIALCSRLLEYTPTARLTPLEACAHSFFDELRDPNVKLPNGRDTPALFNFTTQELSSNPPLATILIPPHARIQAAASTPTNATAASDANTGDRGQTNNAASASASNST
measuredQuantity: log10 IC50 (log10 of the value in nM)

structureSmiles: COc1cc(OC)cc(-c2cc3[nH]ccnc-3n2)c1
log10 IC50: 4.78
//
structureSmiles: COc1ccc(-c2cc3[nH]ccnc-3n2)cc1
log10 IC50: 3.04
//
structureSmiles: c1coc(-c2cc3[nH]ccnc-3n2)c1
log10 IC50: 4.18
//
structureSmiles: c1c[nH]c2cc(-c3ccsc3)nc-2n1
log10 IC50: 2.90
//
structureSmiles: CCCc1c(-c2ccc(O)cc2)[nH]c2nccnc12
log10 IC50: 3.26
//
structureSmiles: c1ccc(Cc2c(-c3ccccc3)[nH]c3nccnc23)cc1
log10 IC50: 3.00
//
structureSmiles: c1csc(-c2cc3[nH]ccnc-3n2)c1
log10 IC50: 3.08
//
structureSmiles: COc1ccc(-c2[nH]c3nccnc3c2C(C)C)cc1
log10 IC50: 2.70
//
structureSmiles: FC(F)(F)c1ccc(-c2cc3[nH]ccnc-3n2)cc1
log10 IC50: 3.86
//
structureSmiles: C=CCc1c(-c2ccc(OC)cc2)[nH]c2nccnc12
log10 IC50: 2.78
//
structureSmiles: COc1ccc(-c2[nH]c3nccnc3c2C)cc1
log10 IC50: 2.66
//
structureSmiles: CN(C)c1ccc(-c2cc3[nH]ccnc-3n2)cc1
log10 IC50: 4.08
//
structureSmiles: Cc1c(-c2ccc(O)cc2)[nH]c2nccnc12
log10 IC50: 2.72
//
structureSmiles: COc1cc(-c2cc3[nH]ccnc-3n2)cc(OC)c1OC
log10 IC50: 4.93
//
structureSmiles: Clc1ccc(-c2[nH]c3nccnc3c2CC2CCCCC2)cc1
log10 IC50: 3.90
//
structureSmiles: Clc1ccc(C2(c3cc4[nH]ccnc-4n3)CC2)cc1
log10 IC50: 3.00
//
structureSmiles: Oc1ccc(-c2[nH]c3nccnc3c2CC2CC2)cc1
log10 IC50: 3.48
//
structureSmiles: COc1cccc(-c2cc3[nH]ccnc-3n2)c1
log10 IC50: 3.51
//
structureSmiles: c1ccc(-c2cc3[nH]ccnc-3n2)cc1
log10 IC50: 3.36
//
structureSmiles: c1ccc(-c2cc3[nH]ccnc-3n2)nc1
log10 IC50: 4.18
//
structureSmiles: c1ccc2c(-c3cc4[nH]ccnc-4n3)cccc2c1
log10 IC50: 4.43
//
structureSmiles: COc1ccccc1-c1cc2[nH]ccnc-2n1
log10 IC50: 3.52
//
structureSmiles: Fc1ccc(-c2cc3[nH]ccnc-3n2)cc1
log10 IC50: 3.28
//
structureSmiles: CCCCc1c(-c2ccc(Cl)cc2)[nH]c2nccnc12
log10 IC50: 3.77
//
structureSmiles: COc1ccc(-c2[nH]c3nccnc3c2C)cc1OC
log10 IC50: 3.30
//
structureSmiles: CCCCc1c(-c2ccc(OC)cc2)[nH]c2nccnc12
log10 IC50: 2.96
//
structureSmiles: Oc1ccccc1-c1cc2[nH]ccnc-2n1
log10 IC50: 3.81
//
structureSmiles: COc1ccc(-c2[nH]c3nccnc3c2CC2CC2)cc1
log10 IC50: 3.04
//
structureSmiles: COc1ccc(-c2[nH]c3nccnc3c2CC2CCCCC2)cc1
log10 IC50: 3.83
//
structureSmiles: Cc1c(-c2ccc(OS(=O)(=O)N(C)C)cc2)[nH]c2nccnc12
log10 IC50: 2.70
//
structureSmiles: c1c[nH]c2cc(-c3ccc(C4OCCO4)cc3)nc-2n1
log10 IC50: 4.30
//
structureSmiles: Brc1ccc(-c2cc3[nH]ccnc-3n2)cc1
log10 IC50: 3.78
//
structureSmiles: CCCc1c(-c2ccc(OC)cc2)[nH]c2nccnc12
log10 IC50: 2.60
//
structureSmiles: Cc1ccc(-c2cc3[nH]ccnc-3n2)cc1
log10 IC50: 3.41
//
structureSmiles: COc1ccc(-c2[nH]c3nccnc3c2CCCCl)cc1
log10 IC50: 3.40
//
structureSmiles: Cc1c(-c2ccc(Cl)cc2)[nH]c2nccnc12
log10 IC50: 3.23
//
structureSmiles: Cc1c(C2(c3ccc(Cl)cc3)CC2)[nH]c2nccnc12
log10 IC50: 4.26
//
structureSmiles: Oc1ccc(-c2cc3[nH]ccnc-3n2)cc1
log10 IC50: 3.08
//
structureSmiles: Clc1ccc(-c2[nH]c3nccnc3c2Cc2ccccc2)cc1
log10 IC50: 3.83
//
structureSmiles: CC(C)c1c(-c2ccc(Cl)cc2)[nH]c2nccnc12
log10 IC50: 2.88
//
structureSmiles: N#Cc1ccc(-c2cc3[nH]ccnc-3n2)cc1
log10 IC50: 3.68
